# PROTOCOL: mouse pharmacokinetics
# Format: in vivo
# ASSAY_CONDITIONS: mice; PO (30 mg/kg) or IV (5 mg/kg), route per parameter not stated
PROPERTY_MEASURED: Cmax
Just so you know, I need the unit written after the number.

-- ask Reported Cmax, compound `CC1(C)CCC(C)(C)c2cc(-c3cc4cc(C(=O)NO)ccc4[nH]3)ccc21` : ____
-- reply 5.54 µM

---

# PROTOCOL: mouse pharmacokinetics
# Format: in vivo
# ASSAY_CONDITIONS: mouse, plasma; mice; PO (30 mg/kg) or IV (5 mg/kg), route per parameter not stated
PROPERTY_MEASURED: Cmax (nM)
Entry rule: numbers only, all in nM.

-- ask Reported Cmax, compound CC1(C)CCC(C)(C)c2cc(-c3ccc4cc(C(=O)NO)ccc4c3)ccc21 [Compound 17] : ____
-- reply 2080

---

# PROTOCOL: mouse pharmacokinetics
# Format: in vivo
# ASSAY_CONDITIONS: mouse, plasma; mice; PO (30 mg/kg) or IV (5 mg/kg), route per parameter not stated
PROPERTY_MEASURED: AUC(0-inf) (µM·h)
Entry rule: numbers only, all in µM·h.

-- ask Reported AUC(0-inf), molecule `CC1(C)CCC(C)(C)c2cc(-c3ccc4cc(C(=O)NO)ccc4c3)ccc21` : ____
-- reply 28.7

---

# Tested on: RAR
# PROTOCOL: RAR-mediated transcription, RARE-tk luciferase reporter in MCF7 cells
# Type: cell-based
PROPERTY_MEASURED: RARE-dependent luciferase expression

Recorded RARE-dependent luciferase expression, per entry:
CC1(C)CCC(C)(C)c2cc(-c3ccc4nc(C(=O)NO)ccc4c3)ccc21
activated
CC1(C)CCC(C)(C)c2cc(-c3cc4cc(C(=O)NO)ccc4[nH]3)ccc21
activated
CC1(C)CCC(C)(C)c2cc(-c3ccc4cc(C(=O)NO)[nH]c4c3)ccc21
activated
CC1(C)CCC(C)(C)c2cc(-c3ccc4cc(C(=O)NO)cnc4c3)ccc21
activated

-- ask Reported RARE-dependent luciferase expression, molecule `CC1(C)CCC(C)(C)c2cc(-c3c[nH]c4cc(C(=O)NO)ccc34)ccc21` : ____
-- reply activated

---

# PROTOCOL: mouse pharmacokinetics
# Assay type: in vivo
# ASSAY_CONDITIONS: mouse, plasma; mice; PO (30 mg/kg) or IV (5 mg/kg), route per parameter not stated; read-out: MRT
PROPERTY_MEASURED: MRT (h)
Entry rule: numbers only, all in h.

-- ask Reported MRT, compound CC1(C)CCC(C)(C)c2cc(-c3ccc4cc(C(=O)NO)ccc4c3)ccc21 [Compound 17] : ____
-- reply 7.1

---

# PROTOCOL: mouse pharmacokinetics
# Format: in vivo
# ASSAY_CONDITIONS: mouse, plasma; mice; PO (30 mg/kg) or IV (5 mg/kg), route per parameter not stated; read-out: Tmax
PROPERTY_MEASURED: Tmax (h)
Entry rule: numbers only, all in h.

-- ask Reported Tmax, compound `CC1(C)CCC(C)(C)c2cc(-c3ccc4cc(C(=O)NO)ccc4c3)ccc21` : ____
-- reply 4.3

---

# PROTOCOL: mouse pharmacokinetics
# Assay type: in vivo
# ASSAY_CONDITIONS: mouse, plasma; mice; PO (30 mg/kg) or IV (5 mg/kg), route per parameter not stated; read-out: CLp
# Protocol: Mouse pharmacokinetics studies were conducted in female athymic nude or male C57/B6 mice (n=3). Due to its very poor aqueous solubility, compound 17 was formulated in 66% PEG-400/33% H2O-1% Tween-80. In contrast compound 13 was formulated in 66% PEG-400/33% H2O. Compounds were administered PO (30 mg/kg) or IV (5 mg/kg), and plasma concentrations were measured by UV/HPLC.
PROPERTY_MEASURED: clearance (mL/min/kg)
Entry rule: numbers only, all in mL/min/kg.

-- ask Reported clearance, compound `CC1(C)CCC(C)(C)c2cc(-c3ccc4cc(C(=O)NO)ccc4c3)ccc21` : ____
-- reply 10.2
